The reported measurements were obtained from patent US20240400589A1.

# target-of-assay: CRP (CRP-containing human plasma) (Homo sapiens, UniProt P02741)
# Construct: from tissue; host or cells: human plasma
# Sequence (P02741 19-224): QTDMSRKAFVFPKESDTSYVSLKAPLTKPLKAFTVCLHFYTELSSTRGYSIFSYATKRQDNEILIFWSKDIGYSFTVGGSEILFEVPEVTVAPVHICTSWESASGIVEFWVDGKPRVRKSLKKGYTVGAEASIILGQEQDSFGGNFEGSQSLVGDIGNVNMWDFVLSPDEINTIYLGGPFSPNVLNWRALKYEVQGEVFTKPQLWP
# assay-remarks: Inhibition of CRP binding to a plate-coated BSA-APPC construct
# condition-notes: 50 ng/mL CRP from human plasma; inhibitor 0.25-3 mM; BSA-APPC coated plate; read-out: 50% inhibitor concentration (IC50)
Below is a list of entries, each paired with its recorded IC50 value.
Only the number, expressed in µM, is required.

C[N+](C)(C)CCOP(=O)([O-])Oc1ccc(N)cc1 [APPC, 4-aminophenylphosphocholine, reference compound] | 700

Below: the item to evaluate.
Qu. // IC50 lookup, key: C[N+](C)(C)CCOP(=O)([O-])Oc1ccc(NC(=O)CC[C@@H](N)C(N)=O)cc1
Ans. 1600
